- Tested on: A549
- test: Cytotoxicity against human A549 cells expressing wild type p53 assessed as reduction in cell viability preincubated for 48 hrs and measured after 4 hrs by MTT assay
- Format: functional, cell-based
# IC50 per entry
propertyName: IC50

> print(dat)
                                  smilescode  propertyname  reportedvalue
 1  NCCCCNc1nc(/C=C/c2ccc3c(c2)OCO3)nc2ccccc12          IC50       > 100 µM
 2  COc1ccc(/C=C/c2nc(NCCCN(C)C)c3ccccc3n2)cc1          IC50        24.8 µM
 3  CCN(CC)CCNc1nc(/C=C/c2ccc(OC)c(OC)c2)nc2ccc(Cl)cc12          IC50       > 100 µM
 4  COc1ccc(/C=C/c2nc(NCCN(C)C)c3cc(Cl)ccc3n2)cc1OC          IC50        21.3 µM
 5  C(=C\c1nc(NCCN2CCCCC2)c2ccccc2n1)/c1ccc2c(c1)OCO2          IC50        39.6 µM
 6  COc1ccc(/C=C/c2nc(NCCN(C(C)C)C(C)C)c3cc(Cl)ccc3n2)cc1OC          IC50       > 100 µM
 7  CCN(CC)CCCNc1nc(/C=C/c2ccc3c(c2)OCO3)nc2ccccc12          IC50       > 100 µM
 8  COc1ccc(/C=C/c2nc(NCCCN(C)C)c3cc(Cl)ccc3n2)cc1OC          IC50       > 100 µM
 9  COc1ccc(/C=C/c2nc(NCCN(C)C)c3ccccc3n2)cc1OC          IC50       > 100 µM
10  COc1ccc(/C=C/c2nc(NCCN3CCOCC3)c3ccccc3n2)cc1OC          IC50       > 100 µM
11  CN(C)CCCNc1nc(/C=C/c2ccc([N+](=O)[O-])cc2)nc2ccccc12          IC50        59.5 µM

====

- Test system: PC-3
- test: Cytotoxicity against human PC-3 cells assessed as reduction in cell viability preincubated for 48 hrs and measured after 4 hrs by MTT assay
- Type: functional, cell-based
pIC50: −log10 of the molar value.
Catalogue of compounds with associated pIC50
propertyName: pIC50

> print(dat)
                                  smilescode  propertyname  reportedvalue
 1  CCN(CC)CCCNc1nc(/C=C/c2ccc([N+](=O)[O-])cc2)nc2ccc(Cl)cc12         pIC50           5.16
 2  COc1ccc(/C=C/c2nc(NCCN3CCCCC3)c3cc(Cl)ccc3n2)cc1OC         pIC50           4.67
 3  COc1ccc(/C=C/c2nc(NCCN3CCCCC3)c3ccccc3n2)cc1OC         pIC50           4.10
 4  CCN(CC)CCNc1nc(/C=C/c2ccc(OC)c(OC)c2)nc2ccc(Cl)cc12         pIC50         < 4.00
 5  COc1ccc(/C=C/c2nc(NCCN(C)C)c3cc(Cl)ccc3n2)cc1OC         pIC50           4.63
 6  CCN(CC)CCNc1nc(/C=C/c2ccc([N+](=O)[O-])cc2)nc2ccccc12         pIC50         < 4.00
 7  O=[N+]([O-])c1ccc(/C=C/c2nc(NCCN3CCCCC3)c3cc(Cl)ccc3n2)cc1         pIC50         < 4.00
 8  COc1ccc(/C=C/c2nc(NCCCN(C)C)c3ccccc3n2)cc1         pIC50           4.79
 9  O=[N+]([O-])c1ccc(/C=C/c2nc(NCCN3CCOCC3)c3ccccc3n2)cc1         pIC50         < 4.00
10  CN(C)CCNc1nc(/C=C/c2ccc3c(c2)OCO3)nc2ccc(Cl)cc12         pIC50         < 4.00
11  O=[N+]([O-])c1ccc(/C=C/c2nc(NCCN3CCOCC3)c3cc(Cl)ccc3n2)cc1         pIC50         < 4.00
12  NCCCCNc1nc(/C=C/c2ccc3c(c2)OCO3)nc2ccc(Cl)cc12         pIC50         < 4.00
13  NCCCCNc1nc(/C=C/c2ccc([N+](=O)[O-])cc2)nc2ccc(Cl)cc12         pIC50         < 4.00
14  CN(C)CCNc1nc(/C=C/c2ccc3c(c2)OCO3)nc2ccccc12         pIC50         < 4.00
15  CN(C)CCCNc1nc(/C=C/c2ccc([N+](=O)[O-])cc2)nc2ccccc12         pIC50         < 4.00
16  CCN(CC)CCCNc1nc(/C=C/c2ccc([N+](=O)[O-])cc2)nc2ccccc12         pIC50           4.81
17  C(=C\c1nc(NCCN2CCOCC2)c2ccccc2n1)/c1ccc2c(c1)OCO2         pIC50         < 4.00
18  CCN(CC)CCNc1nc(/C=C/c2ccc([N+](=O)[O-])cc2)nc2ccc(Cl)cc12         pIC50         < 4.00
19  CC(C)N(CCNc1nc(/C=C/c2ccc3c(c2)OCO3)nc2ccc(Cl)cc12)C(C)C         pIC50           4.98
20  NCCCCNc1nc(/C=C/c2ccc([N+](=O)[O-])cc2)nc2ccccc12         pIC50           5.34
21  CN(C)CCCNc1nc(/C=C/c2ccc3c(c2)OCO3)nc2ccc(Cl)cc12         pIC50         < 4.00
22  CC(C)N(CCNc1nc(/C=C/c2ccc3c(c2)OCO3)nc2ccccc12)C(C)C         pIC50         < 4.00
23  COc1ccc(/C=C/c2nc(NCCN(C(C)C)C(C)C)c3cc(Cl)ccc3n2)cc1OC         pIC50         < 4.00
24  CCN(CC)CCCNc1nc(/C=C/c2ccc3c(c2)OCO3)nc2ccccc12         pIC50         < 4.00
25  Clc1ccc2nc(/C=C/c3ccc4c(c3)OCO4)nc(NCCN3CCCCC3)c2c1         pIC50         < 4.00
26  COc1ccc(/C=C/c2nc(NCCCCN)c3ccccc3n2)cc1OC         pIC50         < 4.00
27  COc1ccc(/C=C/c2nc(NCCCN(C)C)c3cc(Cl)ccc3n2)cc1OC         pIC50         < 4.00
28  CN(C)CCCNc1nc(/C=C/c2ccc3c(c2)OCO3)nc2ccccc12         pIC50         < 4.00
29  CCN(CC)CCNc1nc(/C=C/c2ccc3c(c2)OCO3)nc2ccc(Cl)cc12         pIC50           4.85
30  CC(C)N(CCNc1nc(/C=C/c2ccc([N+](=O)[O-])cc2)nc2ccc(Cl)cc12)C(C)C         pIC50         < 4.00
